# subjectOfTest: human γ-tubulin (Homo sapiens)
# Construct: myc (C); 6His (C); made in house; host or cells: Sf21 insect cells (baculovirus)
# Sequence (P23258 whole entry): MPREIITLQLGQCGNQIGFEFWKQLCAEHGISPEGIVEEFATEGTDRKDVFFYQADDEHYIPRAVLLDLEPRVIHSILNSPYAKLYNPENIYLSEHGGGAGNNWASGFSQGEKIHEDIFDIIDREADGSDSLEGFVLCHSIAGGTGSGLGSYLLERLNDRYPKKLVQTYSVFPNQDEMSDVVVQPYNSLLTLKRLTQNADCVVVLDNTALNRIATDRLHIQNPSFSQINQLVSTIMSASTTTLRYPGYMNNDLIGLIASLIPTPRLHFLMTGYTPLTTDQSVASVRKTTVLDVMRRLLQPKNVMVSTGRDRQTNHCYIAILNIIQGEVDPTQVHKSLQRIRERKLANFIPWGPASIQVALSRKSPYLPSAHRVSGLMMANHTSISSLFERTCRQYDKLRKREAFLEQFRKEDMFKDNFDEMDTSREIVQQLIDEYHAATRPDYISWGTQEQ
# assayNotes: GTP binding to recombinant γ-tubulin (UV crosslinking)
# cond: 70 nM γ-tubulin, α-[32P]-GTP
# Experimental: Supplementary Figure 2. Binding of GTP and GCP4 to recombinant human γ-tubulin (a) GTP binding to γ-tubulin. 70 nM of γ-tubulin was mixed with indicated concentrations of α-[32P]-GTP, and cross-linked by UV irradiation. After separation of crosslinked γ-tubulin and unbound α-[32P]-GTP, radioactivity was detected with a phosphorimager. Band intensities were quantified with ImageJ. The Kd (121.1 nM) was calculated using GraphPad Prizm software. […]
endpointName: pKd
Lab note — pKd values are minus log10 of concentrations in M.

Respond only with pKd recorded for Nc1nc2c(ncn2[C@@H]2O[C@H](COP(=O)(O)OP(=O)(O)OP(=O)(O)O)[C@@H](O)[C@H]2O)c(=O)[nH]1
6.92
